- SYSTEM_TESTED: Dihydroorotate dehydrogenase (quinone), mitochondrial (Rattus norvegicus)
- Sequence (Q63707 whole entry): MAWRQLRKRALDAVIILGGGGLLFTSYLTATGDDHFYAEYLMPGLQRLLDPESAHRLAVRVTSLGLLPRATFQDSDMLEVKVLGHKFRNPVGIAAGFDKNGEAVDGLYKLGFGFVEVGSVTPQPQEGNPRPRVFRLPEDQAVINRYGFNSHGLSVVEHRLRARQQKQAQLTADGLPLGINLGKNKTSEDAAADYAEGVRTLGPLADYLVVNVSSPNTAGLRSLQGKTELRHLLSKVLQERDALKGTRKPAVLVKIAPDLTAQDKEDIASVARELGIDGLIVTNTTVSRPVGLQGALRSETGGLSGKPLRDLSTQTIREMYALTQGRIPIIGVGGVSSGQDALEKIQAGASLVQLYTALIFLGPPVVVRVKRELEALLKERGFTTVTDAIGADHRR
- ASSAY_COMMENT: Inhibition of dihydroorotate dehydrogenase in Wistar rat liver mitochondrial/microsomal membranes measured for 5 mins by 2,6-dichlorophenolindophenol reduction-based spectrophotometry
pIC50: −log10 of the molar value.
MEASURED_ATTRIBUTE: pIC50

Observe how each entry below is paired with its result.
>>> measured_result("O=C(Nc1c(F)cc(-c2ccc(C(F)(F)F)cc2)cc1F)c1nonc1O")
5.64
>>> measured_result("O=C(Nc1c(F)c(F)c(-c2cccc(C(F)(F)F)c2)c(F)c1F)c1nonc1O")
6.92
>>> measured_result("O=C(Nc1ccc(-c2ccccc2)cc1)c1nonc1O")
4.96
>>> measured_result("O=C(Nc1c(F)cc(-c2cccc(C(F)(F)F)c2)cc1F)c1nonc1O")
6.06
>>> measured_result("O=C(Nc1c(F)c(F)c(-c2ccc(C(F)(F)F)cc2)c(F)c1F)c1no[nH]c1=O")
6.31
>>> measured_result("O=C(Nc1c(F)c(F)c(-c2ccccc2)c(F)c1F)c1no[nH]c1=O")
7.18
>>> measured_result("O=C(Nc1ccccc1-c1ccccc1)c1no[nH]c1=O")
4.35
>>> measured_result("O=C(Nc1c(F)c(F)c(-c2cccc(OC(F)(F)F)c2)c(F)c1F)c1no[nH]c1=O")
7.30

P: O=C(Nc1ccc(-c2cccc(C(F)(F)F)c2)cc1)c1nonc1O
Q: O=C(Nc1ccc(-c2ccc(C(F)(F)F)cc2)cc1)c1nonc1O
R: O=C(Nc1c(F)cc(-c2ccccc2)cc1F)c1no[nH]c1=O
S: O=C(Nc1ccc(C(F)(F)F)cc1)c1nonc1O
Q) hey, can you rank those compounds up there by pIC50? biggest number first please Sort the labels as requested; that list is your answer.
A) R, S, P, Q
